Each recorded value in this set is attributed to patent US12655116B2.

system: AVEFA; assay: Pre-emergence herbicidal action against AVEFA; type: in vivo, Avena fatua; conditions: Avena fatua, 504 h; 80 g/ha, pre-emergence

[
  {
    "molecule smiles": "CCn1nnnc1NC(=O)c1ccc(C(F)(F)F)c(C(=O)NC2CC2)c1OC",
    "system tested": "AVEFA",
    "unit of measure": "%",
    "pest or weed control at 80 g/ha": 90
  },
  {
    "molecule smiles": "CCNC(=O)c1c(C(F)F)ccc(C(=O)Nc2nnnn2CC)c1Cl",
    "system tested": "AVEFA",
    "unit of measure": "%",
    "pest or weed control at 80 g/ha": 100
  },
  {
    "molecule smiles": "CCn1nnnc1NC(=O)c1ccc(C(F)F)c(C(=O)NC2CC2)c1Cl",
    "system tested": "AVEFA",
    "unit of measure": "%",
    "pest or weed control at 80 g/ha": 100
  },
  {
    "molecule smiles": "Cn1nnnc1NC(=O)c1ccc(Br)c(C(=O)NC2CC2)c1Br",
    "system tested": "AVEFA",
    "unit of measure": "%",
    "pest or weed control at 80 g/ha": 90
  },
  {
    "molecule smiles": "CCNC(=O)c1c(Br)ccc(C(=O)Nc2nnnn2C)c1Br",
    "system tested": "AVEFA",
    "unit of measure": "%",
    "pest or weed control at 80 g/ha": 80
  }
]
